Tested on: E. coli (ATCC 25966)
Assay: Antibacterial viability (CFU) assay, IC50
Format: cell-based
Conditions: Escherichia coli, ATCC25966; E. coil (ATCC 25966)
RECORDED_METRIC: IC50 (µM)
Answer format: numeric, µM implied, no suffix.

# count of solved cases: 6
# MOLECULE, UNITS_SYMBOL, IC50
records = [
    ("COC(=O)C1=C(C)OC(N)=C(C#N)C1c1cccc(O)c1Cl (stereo not shown)", "µM", 95.7),
    ("CC1=C(C(=O)OCc2ccccc2)C(c2ccc(Cl)cc2Cl)C(C#N)=C(N)O1 (stereo not shown)", "µM", 69.4),
    ("CC1=C(C(=O)OCc2ccccc2)C(c2ccc(F)cc2)C(C#N)=C(N)O1 (stereo not shown)", "µM", 82.6),
    ("CC1(C)S[C@@H]2[C@H](NC(=O)[C@H](N)c3ccccc3)C(=O)N2[C@H]1C(=O)O [Ampicillin, reference compound]", "µM", 58),
    ("Cc1[nH]nc2c1C(c1cccc(O)c1Cl)C(C#N)=C(N)O2 (stereo not shown)", "µM", 110),
    ("COc1cccc(C2C(C#N)=C(N)OC(C)=C2C(=O)OCc2ccccc2)c1[N+](=O)[O-] (stereo not shown)", "µM", 93.7),
]

Now take the following molecule into account.
Task item: Output measured IC50 for this item: CCOC(=O)C1=C(C)OC(N)=C(C#N)C1c1cccc(OC)c1[N+](=O)[O-] (stereo not shown)
Reply: 100

###

Tested on: K. pneumonia (ATCC 700603)
Assay: Antibacterial agar diffusion method (inhibition zone)
Assay type: cell-based
RECORDED_METRIC: IZ (mm)
Answer format: numeric, mm implied, no suffix.

# COMPOUND, EXPERIMENTAL_SYSTEM, UNITS_SYMBOL, IZ (mm)
rows = [
    ("CCOC(=O)C1=C(C)OC(N)=C(C#N)C1c1cccc(-c2ccccc2)c1 (stereo not shown) [4e]", "K. pneumonia (ATCC 700603)", "mm", 2.5),
]

Task item: Output measured IZ (mm) for this item: CC1=C(C(=O)OCc2ccccc2)C(c2ccc(Cl)cc2Cl)C(C#N)=C(N)O1 (stereo not shown) [4m]
Reply: 6.5

Task item: Output measured IZ (mm) for this item: COc1cc(OC)c(C2C(C#N)=C(N)Oc3n[nH]c(C)c32)c(OC)c1 (stereo not shown) [5b]
Reply: 4.5

Task item: Output measured IZ (mm) for this item: CC1=C(C(=O)OCc2ccccc2)C(c2ccc(F)cc2)C(C#N)=C(N)O1 (stereo not shown) [4i]
Reply: 6.5

Task item: Output measured IZ (mm) for this item: Cc1[nH]nc2c1C(c1cccc(O)c1Cl)C(C#N)=C(N)O2 (stereo not shown) [5a]
Reply: 6.0

Task item: Output measured IZ (mm) for this item: CCOC(=O)C1=C(C)OC(N)=C(C#N)C1c1c(OC)cc(OC)cc1OC (stereo not shown) [4h]
Reply: 3.5

Task item: Output measured IZ (mm) for this item: COC(=O)C1=C(C)OC(N)=C(C#N)C1c1ccccc1C(=O)O (stereo not shown) [4a]
Reply: 2.5

###

Test system: S. aureus (ATCC 25923)
Assay: Antibacterial viability (CFU) assay, IC50
Format: cell-based
Conditions: Staphylococcus aureus, ATCC25923
RECORDED_METRIC: pIC50
The quantity pIC50 is defined as the negative base-10 logarithm of the molar concentration.

# count of solved cases: 5
# MOLECULE, EXPERIMENTAL_RESULT
records = [
    ("CC1=C(C(=O)OCc2ccccc2)C(c2ccc(F)cc2)C(C#N)=C(N)O1 (stereo not drawn)", 4.40),
    ("COC(=O)C1=C(C)OC(N)=C(C#N)C1c1ccccc1C(=O)O (stereo not drawn)", 4.39),
    ("CC1=C(C(=O)OCc2ccccc2)C(c2ccc(C#N)cc2)C(C#N)=C(N)O1 (stereo not drawn)", 4.36),
    ("COc1ccc(C2C(C#N)=C(N)OC(C)=C2C(=O)OCc2ccccc2)cc1 (stereo not drawn)", 4.48),
    ("CC1(C)S[C@@H]2[C@H](NC(=O)[C@H](N)c3ccccc3)C(=O)N2[C@H]1C(=O)O [Ampicillin, reference compound]", 4.41),
]

Task item: Output measured pIC50 for this item: COc1cc(C2C(C#N)=C(N)OC(C)=C2C(=O)OCc2ccccc2)cc(OC)c1OC (stereo not drawn)
Reply: 4.61

Task item: Output measured pIC50 for this item: CC1=C(C(=O)OCc2ccccc2)C(c2ccccc2Cl)C(C#N)=C(N)O1 (stereo not drawn)
Reply: 4.51

Task item: Output measured pIC50 for this item: CCOC(=O)C1=C(C)OC(N)=C(C#N)C1c1cccc(O)c1Cl (stereo not drawn)
Reply: 4.56

Task item: Output measured pIC50 for this item: CCOC(=O)C1=C(C)OC(N)=C(C#N)C1c1cccc(-c2ccccc2)c1 (stereo not drawn)
Reply: 4.46
